Molecular target: T1, Germicidin synthase (Gcs) R276A (Streptomyces coelicolor, UniProt Q9K464 1-389, R276A)
T1 sequence (looked up): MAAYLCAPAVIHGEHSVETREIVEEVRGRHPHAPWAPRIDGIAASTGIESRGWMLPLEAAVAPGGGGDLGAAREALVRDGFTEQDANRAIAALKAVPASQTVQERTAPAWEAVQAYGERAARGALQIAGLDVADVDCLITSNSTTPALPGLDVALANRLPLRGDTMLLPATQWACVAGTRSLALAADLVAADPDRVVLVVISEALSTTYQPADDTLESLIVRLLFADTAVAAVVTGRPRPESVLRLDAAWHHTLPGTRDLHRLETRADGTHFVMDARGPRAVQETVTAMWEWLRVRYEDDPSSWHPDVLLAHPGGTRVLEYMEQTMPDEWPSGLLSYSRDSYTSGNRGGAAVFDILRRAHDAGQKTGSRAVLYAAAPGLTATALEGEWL
Experiment: BLI
propertyMeasured: Kd
# answer = value followed by unit

So what's the measured Kd for this one? Acyl carrier protein AcpP (Sco2389), biotinylated (natural protein, Streptomyces coelicolor, UniProt P72393 1-82, looked up, biotin (EZ-Link NHS-LC-LC-biotin, 5:1 molar ratio of biotin to protein)) MAATQEEIVAGLAEIVNEIAGIPVEDVKLDKSFTDDLDVDSLSMVEVVVAAEERFDVKIPDDDVKNLKTVGDATKYILDHQA
185 nM
